- System: HOP-62 NSCLC
- PROTOCOL_DESCRIPTION: NCI tumour cell line growth inhibition, 48 h
QUANTITY_KIND: GI50

Nc1ccc(-c2nc3ccccc3[nH]2)c2ccccc12: 6160 nM

Q) Answer with the recorded GI50 of "CCN(Cc1ccc(Cl)s1)c1ccc(CO)c(Cl)c1" only.
A) 746 nM

Q) Answer with the recorded GI50 of "CCCCCn1sc(=O)n(Cc2ccc(CNC(=O)OCc3ccc4cccc(O)c4n3)cc2)c1=O" only.
A) 2730 nM

---

- Test system: SK-MEL-2 melanoma
- PROTOCOL_DESCRIPTION: NCI tumour cell line growth inhibition, 48 h
QUANTITY_KIND: TGI (µM)
Reply numerically in µM, unit not repeated.

Use the examples below as a reference point.
CC1=CC(=O)C(O)C2(C)C1CC(O)C13COC4(C)C(OC(=O)C41)C(O)C23 (stereo not given): 29.5
O=C(CSC1=NCCN1)Nc1ccccc1: 44.5
COc1ccc(/C=C2\CN(C)C/C(=C\c3ccc(OC)c(OC)c3OC)C2=O)c(OC)c1OC: 2.4

Proceeding to the next compound to report its TGI.
Q) Answer with the recorded TGI of "O=C(O)/C(Cl)=C(\Cl)C(=O)Nc1ccc(Cl)c(Cl)c1Cl" only.
A) 33.9

---

- System: CAKI-1 renal
- PROTOCOL_DESCRIPTION: NCI tumour cell line growth inhibition, 48 h; in the data active means GI50 below about 0.43 µM; inactive means the rest
Write down one outcome, taken from 1 (active), 0 (inactive)

Recorded results for 5 compounds are shown here.
CC1(C)N=C(N)N=C(N)N1c1ccc(CCCCc2ccc(S(=O)(=O)F)cc2)c(Cl)c1: 0
O=[N+]([O-])c1cc(S(=O)(=O)Oc2ccccc2)ccc1Cl: 0
COc1ccc2c(c1OC)C(=O)OC2C1c2c(c([N+](=O)[O-])c3c(c2OC)OCO3)CCN1C (centres undefined): 0
COc1cc2c(c(OC)c1OC)-c1ccc(SC)c(=O)cc1[C@@H](NC1OC(CO)C(O)C(O)C1O)CC2 (some centres undefined): 1
CCN(Cc1ccc(Cl)s1)c1ccc(CO)c(Cl)c1: 0

Q) Hey, what did the test say about "COc1cc(/C=C/[N+](=O)[O-])cc(Br)c1OC" ?
A) 0

Q) Hey, what did the test say about CCN1C(=O)N(CC)C2C1NN=c1s/c(=C3\C(=O)N(CCc4ccccc4)c4ccccc43)c(=O)n12 (centres undefined) ?
A) 0

Q) Hey, what did the test say about COc1ccc2cc(-c3c(-c4ccncc4)nc(-c4ccc(S(C)=O)cc4)n3C)ccc2c1 (centres undefined) ?
A) 0

Q) Hey, what did the test say about "O=C([CH-]C(=O)c1ccccc1)c1ccccc1.O=C([CH-]C(=O)c1ccccc1)c1ccccc1.[OH-].[OH-].[Ti+4]" ?
A) 0

---

- Test system: UACC-257 melanoma
- PROTOCOL_DESCRIPTION: NCI tumour cell line growth inhibition, 48 h
Reported GI50 values are given for each entry in this list.

Use the examples below as a reference point.
N#CN1CC[C@H](C(=O)Nc2ncc(-c3ccncc3)s2)C1: 0.605 µM
COc1ccc(OC)c(Cn2cc3c(c2)-c2oncc2CC3)c1: 5.11 µM
CC(=O)c1c(C(F)(F)F)n([O-])c2ccc(C)cc2[n+]1=O: 4.42 µM

Q) // fetch GI50; item: COc1ccc2c(c1OC)C(=O)OC2C1c2c(c([N+](=O)[O-])c3c(c2OC)OCO3)CCN1C (stereo unspecified) ; system: UACC-257 melanoma
A) > 100 µM

Q) // fetch GI50; item: "Nc1ccc(-c2nc3ccccc3[nH]2)c2ccccc12" ; system: UACC-257 melanoma
A) 6.46 µM

Q) // fetch GI50; item: COc1cc2c(c(OC)c1OC)-c1ccc(SC)c(=O)cc1[C@@H](NC1OC(CO)C(O)C(O)C1O)CC2 (stereo partly specified) ; system: UACC-257 melanoma
A) 0.447 µM

Q) // fetch GI50; item: COc1ccc2c(c1)OC1=C(C(=O)OC1)C2c1cc(OC)c2c(c1)OCO2 (stereo unspecified) ; system: UACC-257 melanoma
A) > 46.1 µM

Q) // fetch GI50; item: CN(CCCCCl)P(=O)(OCCS(=O)(=O)CC(NC(=O)CCC(N)C(=O)O)C(=O)NC(C(=O)O)c1ccccc1)OCC1OC(n2cc(F)c(=O)[nH]c2=O)CC1O (stereo unspecified) ; system: UACC-257 melanoma
A) 4.58 µM

Q) // fetch GI50; item: "CN1CCC(n2cnc(-c3ccc(F)cc3)c2-c2ccnc(N)n2)CC1" ; system: UACC-257 melanoma
A) 11.7 µM

Q) // fetch GI50; item: COc1ccc(OC)c(C2SCC(=O)N2NC(=O)C(O)c2ccccc2)c1 (stereo unspecified) ; system: UACC-257 melanoma
A) > 100 µM

Q) // fetch GI50; item: "N#Cc1ccc(N=Cc2c([O-])ccc3ccccc23)cc1.[C-]#[O+].[C-]#[O+].[Ir]" ; system: UACC-257 melanoma
A) 10.6 µM

Reference source for all entries: PubChem BioAssay (NCI)
